Listed below: IC50 values for each entry.
target: wild type ALAS2 (Homo sapiens, UniProt P22557); construct: MBP (TEV-cleavable) (C, cleaved yes); made in house; host or cells: E. coli; assay: General IC50 assay, version 1 (5 ug/mL ALAS2), ALA by mass spectrometry; type: biochemical; details: version 1 assay: 5 ug/mL ALAS2, 0 uM PLP, 1 h reaction; read-out: IC50 (uM) ALAS2 v1; 0 uM PLP
Sequence (P22557 79-587): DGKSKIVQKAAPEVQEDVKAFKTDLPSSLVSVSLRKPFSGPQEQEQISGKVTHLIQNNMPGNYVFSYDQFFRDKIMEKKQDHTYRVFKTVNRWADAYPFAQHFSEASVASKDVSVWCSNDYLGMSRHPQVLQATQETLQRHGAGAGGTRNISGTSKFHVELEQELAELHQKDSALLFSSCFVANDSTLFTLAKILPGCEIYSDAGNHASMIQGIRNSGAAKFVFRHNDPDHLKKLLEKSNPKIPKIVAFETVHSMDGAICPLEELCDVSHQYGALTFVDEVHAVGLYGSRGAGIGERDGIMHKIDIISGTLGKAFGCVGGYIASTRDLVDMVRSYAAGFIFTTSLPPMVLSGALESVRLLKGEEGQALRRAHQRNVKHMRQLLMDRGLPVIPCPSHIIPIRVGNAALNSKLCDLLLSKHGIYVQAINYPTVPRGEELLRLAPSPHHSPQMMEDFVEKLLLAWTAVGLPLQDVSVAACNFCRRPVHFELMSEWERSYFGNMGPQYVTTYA

// worked examples, IC50 included
NNc1cc(-c2ccccc2)[nH]n1 : 10 to 50 µM
NNc1nc(C(F)(F)F)cs1 : > 50 µM
NNc1nnc(-c2ccccn2)s1 : < 10 µM

INPUT: Give its IC50 value. Item: CN(N)c1noc(=O)[nH]1
OUTPUT: < 10 µM
